Measured values drawn from ChEMBL document CHEMBL3044874 for this set.

assay_name: Protection index, ratio TD50 for neurotoxicity to ED50 for protection against maximal electroshock-induced seizure in Mus musculus Swiss albino (mouse)
Type: toxicity, organism-based
assay_setup: in vivo, read-out: Ratio TD50/ED50
Returns one of 1.0 or 0.0; 1.0 when selectivity ratio is >= 7.

Qu. Please indicate if the recorded selectivity ratio for c1cncc(CN=C2CCCCC2)c1 meets or exceeds 7.
Ans. 1.0

Qu. Please indicate if the recorded selectivity ratio for C(=N\Cc1cccnc1)/c1ccccc1 meets or exceeds 7.
Ans. 0.0

Qu. Please indicate if the recorded selectivity ratio for COc1cc(/C=N/Cc2cccnc2)cc(OC)c1OC meets or exceeds 7.
Ans. 1.0

Qu. Please indicate if the recorded selectivity ratio for OC(/C(=N\Cc1cccnc1)c1ccccc1)c1ccccc1 (centres undefined) meets or exceeds 7.
Ans. 0.0

Qu. Please indicate if the recorded selectivity ratio for c1ccc(C(=NCc2cccnc2)c2ccccc2)cc1 meets or exceeds 7.
Ans. 1.0

Qu. Please indicate if the recorded selectivity ratio for COc1cc(/C=N/Cc2cccnc2)ccc1O meets or exceeds 7.
Ans. 0.0

Qu. Please indicate if the recorded selectivity ratio for C(=C\c1ccccc1)/C=N/Cc1cccnc1 meets or exceeds 7.
Ans. 0.0

Qu. Please indicate if the recorded selectivity ratio for Clc1ccccc1/C=N/Cc1cccnc1 meets or exceeds 7.
Ans. 1.0

Qu. Please indicate if the recorded selectivity ratio for Clc1ccc(/C=N/Cc2cccnc2)cc1 meets or exceeds 7.
Ans. 0.0

Qu. Please indicate if the recorded selectivity ratio for COc1ccccc1/C=N/Cc1cccnc1 meets or exceeds 7.
Ans. 1.0

Qu. Please indicate if the recorded selectivity ratio for O=[N+]([O-])c1ccc(/C=N/Cc2cccnc2)cc1 meets or exceeds 7.
Ans. 1.0

Qu. Please indicate if the recorded selectivity ratio for COc1ccc(/C=N/Cc2cccnc2)cc1OC meets or exceeds 7.
Ans. 1.0

Qu. Please indicate if the recorded selectivity ratio for C/C(=N\Cc1cccnc1)c1ccccc1 meets or exceeds 7.
Ans. 1.0

----------
Test system: Mus musculus
assay_name: Anticonvulsant activity in ip dosed Mus musculus Swiss albino (mouse) assessed as protection against strychnine-induced seizure at 4 hr
Type: functional
assay_setup: read-out: MED
outcome_measure: minimal effective dose (mg/kg)
Just the number in mg/kg, nothing appended.

Qu. Entry under review: C(=N\Cc1cccnc1)/c1ccccc1 . Reported minimal effective dose?
Ans. 100

Qu. Entry under review: C/C(=N\Cc1cccnc1)c1cccc(N)c1 . Reported minimal effective dose?
Ans. 100

Qu. Entry under review: COc1cc(/C=N/Cc2cccnc2)ccc1O . Reported minimal effective dose?
Ans. 30

Qu. Entry under review: Clc1ccccc1/C=N/Cc1cccnc1 . Reported minimal effective dose?
Ans. 100

Qu. Entry under review: COc1ccc(/C=N/Cc2cccnc2)cc1O . Reported minimal effective dose?
Ans. 300

Qu. Entry under review: Clc1ccc(/C=N/Cc2cccnc2)cc1 . Reported minimal effective dose?
Ans. 300

Qu. Entry under review: C(=N\Cc1cccnc1)/c1c[nH]c2ccccc12 . Reported minimal effective dose?
Ans. 100

Qu. Entry under review: COc1cc(/C=N/Cc2cccnc2)cc(OC)c1OC . Reported minimal effective dose?
Ans. 30

Qu. Entry under review: O=[N+]([O-])c1ccc(/C=N/Cc2cccnc2)cc1 . Reported minimal effective dose?
Ans. 100

----------
System: Mus musculus
assay_name: Neurotoxicity against ip dosed Mus musculus Swiss albino (mouse) at 4 hr by rota rod test
Type: toxicity, organism-based
assay_setup: in vivo
outcome_measure: MTC (mg/kg)
Just the number in mg/kg, nothing appended.

Qu. Entry under review: C(=N\Cc1cccnc1)/c1c[nH]c2ccccc12 . Reported MTC?
Ans. 100

Qu. Entry under review: C(=N\Cc1cccnc1)/c1ccccc1 . Reported MTC?
Ans. 100

Qu. Entry under review: C(=C\c1ccccc1)/C=N/Cc1cccnc1 . Reported MTC?
Ans. 100

Qu. Entry under review: C/C(=N\Cc1cccnc1)c1cccc(N)c1 . Reported MTC?
Ans. 100

Qu. Entry under review: COc1ccccc1/C=N/Cc1cccnc1 . Reported MTC?
Ans. 300

Qu. Entry under review: OC(/C(=N\Cc1cccnc1)c1ccccc1)c1ccccc1 (configuration not stated) . Reported MTC?
Ans. 30

Qu. Entry under review: COc1ccc(/C=N/Cc2cccnc2)cc1O . Reported MTC?
Ans. 100
